B1: TPR 5TU (parent)
chain: GGAUCUUCUCGAUCUAACAAAAAAGACAAAUCUGCCACAAAGCUUGAGAGCAUCUUCGGAUGCAGAGGCGGCAGCCUUCGGUGGCGCGAUAGCGCCAACGUUCUCAACUAUGACACGCAAAACGCGUGCUCCGUUGAAUGGAGUUUAUCAUG

Variants of: B1
Experiment: polymerase ribozyme fitness, log enrichment relative to wild type (log ratio); higher = more active; in vitro selection for triplet polymerase activity
Fewer inactive variants are shown than the library holds.
Measured polymerase ribozyme fitness (log ratio) of individual entries
METRIC: polymerase ribozyme fitness (log ratio)

1. G81C C85G C95G
-3.07
2. A49C G141C
-4.14
3. A3G C93U
-1.78
4. A16C A20C G84U A97U U130C
-4.17
5. U56A C69U A106G
-1.79
6. A20G A47C G48C G50C U56C C87A C95G U139A G141A
-4.1
7. C54U C69A U144C
-3.89
8. A91G C96U A106G
-2.5
9. A40C G143A
-0.684
10. A98U A142U
-2.98
11. G58C A122G A150C
-3.46
12. C85U G128U C131U
-2.93
13. U53A U56G
-1.11
14. C93G A98U
-2.82
15. A24U
0.541
16. C131U
1.18
17. C75A C87U
-3.81
18. A30G C93A
-3.95
19. G84A A147C
-0.0528
20. G58C A115U U127C U144G
0.143
21. A17G C93A
-2.46
22. A26U A89G
-3.26
23. G50U G81C U134A
-2.19
24. A23C C93A
-3.87
25. C38A G94A C123U
-0.611
26. G84U A120G
-2.16
27. G58A C87U G92A A150G
-0.884
28. A41U U82G G86U A97U G124C
-3.18
29. C57A G58A
1.15
30. C76U U135C
-2.53
31. A12U A97U
-0.954
32. A20U A47G G50U C85G
-3.77
33. A17U G50A
-2.57
34. G84A C123G
-0.679
35. A26C C76A
-3.75
36. C54G G58C A122G G124U
-2.2
37. A17G C96A A119U
-0.596
38. A49G C125G
-0.947
39. A47U G50A G84U A98U
-3.28
40. A29G C38U U53G C85G A98U C108A G128U
-3.97
41. G136A A147G
-1.36
42. A12C C96U
-0.42
43. C36U G59C C95A
-1.64
44. U31C A41U A115G U144G
-1.6
45. C85A C123U
-1.2
46. U53A C54U
-0.319

Data origin, for the record: the RNAGym collection of RNA variant scans (doi:10.1073/pnas.2313332121)
